Test system: Danio rerio embryo
experimental.details: EC10 Pigmentation increase; higher = less potent
condition.context: exposure time: 4 dpf
measurement.label: EC10 Pigmentation increase (µM)
// return numeric value only (unit: µM, not printed)

# count of solved cases: 2
CCCNCC(O)COc1ccccc1C(=O)CCc1ccccc1 (stereo unspecified) :: 23.1
CC1(C)OC(=O)C(OCC2CC2)=C1c1ccc(S(C)(=O)=O)cc1 :: 83

input: Record O=C(O)CCc1nc(-c2ccccc2)c(-c2ccccc2)o1 : what is its EC10 Pigmentation increase with Danio rerio embryo?
output: 29.2

input: What do we get for CNCCC=C1c2ccccc2CCc2ccccc21 ?
output: 0.889

input: What do we get for CC(C)(C)C(O)/C(=C/c1ccc(Cl)cc1Cl)n1cncn1 (stereo unspecified) ?
output: 2.49

input: What do we get for CSc1nc2cc(Cl)c(Oc3cccc(Cl)c3Cl)cc2[nH]1 ?
output: 0.654
